# target or test system: Phosphatidylinositol 4,5-bisphosphate 3-kinase catalytic subunit delta isoform (Homo sapiens)
# Sequence (O00329 whole entry): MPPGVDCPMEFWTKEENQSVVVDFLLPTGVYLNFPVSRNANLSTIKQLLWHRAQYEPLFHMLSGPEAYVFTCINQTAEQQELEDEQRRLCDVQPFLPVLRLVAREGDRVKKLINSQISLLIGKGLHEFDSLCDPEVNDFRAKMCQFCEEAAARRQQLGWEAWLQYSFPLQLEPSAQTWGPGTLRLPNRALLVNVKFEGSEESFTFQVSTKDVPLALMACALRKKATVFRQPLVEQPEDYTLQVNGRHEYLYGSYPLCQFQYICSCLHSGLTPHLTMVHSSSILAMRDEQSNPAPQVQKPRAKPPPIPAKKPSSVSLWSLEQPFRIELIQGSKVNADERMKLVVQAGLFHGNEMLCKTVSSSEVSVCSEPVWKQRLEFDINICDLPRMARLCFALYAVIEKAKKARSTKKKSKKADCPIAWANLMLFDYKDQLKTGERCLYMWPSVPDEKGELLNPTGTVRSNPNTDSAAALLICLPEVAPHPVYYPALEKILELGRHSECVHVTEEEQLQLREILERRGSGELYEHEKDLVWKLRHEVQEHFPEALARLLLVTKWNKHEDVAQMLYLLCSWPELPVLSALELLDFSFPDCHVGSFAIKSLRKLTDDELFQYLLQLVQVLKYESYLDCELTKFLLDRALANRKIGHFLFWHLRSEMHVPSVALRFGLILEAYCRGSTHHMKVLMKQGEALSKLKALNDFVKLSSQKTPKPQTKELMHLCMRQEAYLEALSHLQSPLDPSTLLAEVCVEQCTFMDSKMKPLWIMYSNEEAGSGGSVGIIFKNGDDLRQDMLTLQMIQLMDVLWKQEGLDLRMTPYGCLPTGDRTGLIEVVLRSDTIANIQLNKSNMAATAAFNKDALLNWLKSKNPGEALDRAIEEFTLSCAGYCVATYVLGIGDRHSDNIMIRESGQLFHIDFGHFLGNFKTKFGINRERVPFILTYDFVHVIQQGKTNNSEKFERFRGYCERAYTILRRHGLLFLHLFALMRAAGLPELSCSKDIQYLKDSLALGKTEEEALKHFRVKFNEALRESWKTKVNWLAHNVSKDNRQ
# protocol notes: Inhibition of recombinant PI3Kdelta (unknown origin) using PIP2:3PS as substrate preincubated for 20 mins followed by ATP addition and measured after 1 hrs by ADP-Glo reagent based assay
recorded endpoint: IC50 (nM)

Illustrative cases are given below, each with its answer.
[[record]]
item_smiles = "COc1ncc(-c2ccc3ncnc(N[C@H]4CCN(C(=O)C5CCOCC5)C4)c3c2)cc1C(=O)Oc1cccnc1"
recorded_value = 0.26

[[record]]
item_smiles = "COc1ccc(OC(=O)c2cc(-c3ccc4ncnc(N[C@H]5CCN(C(=O)C6CCOCC6)C5)c4n3)cnc2OC)cc1"
recorded_value = 1.17

[[record]]
item_smiles = "COc1ncc(-c2ccc3ncnc(N[C@H]4CCN(C(=O)C5CCOCC5)C4)c3n2)cc1C(=O)Oc1ccc(Cl)cc1"
recorded_value = 2.57

[[record]]
item_smiles = "COc1ncc(-c2ccc3ncnc(N[C@H]4CCN(C(=O)C5CCOCC5)C4)c3c2)cc1C(=O)Oc1ccc(C(F)(F)F)cc1"
recorded_value = 0.93

[[record]]
item_smiles = "COc1ncc(-c2ccc3ncnc(N[C@H]4CCN(C(=O)C5CCOCC5)C4)c3n2)cc1C(=O)Oc1ccccc1"
recorded_value = 0.27

[[record]]
item_smiles = "COC(=O)c1cc(-c2ccc3ncnc(N[C@H]4CCN(C(=O)C5CCOCC5)C4)c3c2)cnc1OC"
recorded_value = 1.59


a: COc1ccc(OC(=O)c2cc(-c3ccc4ncnc(N[C@H]5CCN(C(=O)C6CCOCC6)C5)c4c3)cnc2OC)cc1
b: COc1ncc(-c2ccc3ncnc(N[C@H]4CCN(C(=O)C5CCOCC5)C4)c3c2)cc1C(=O)Oc1ccccc1
Lookup: Given the two records a and b , choose the one whose IC50 value is lower. // output: label of the selected item
Found: b
(b: 0.53 nM, a: 2.02 nM)

====

# protocol notes: Selectivity index, ratio of IC50 for inhibition of recombinant PI3Kgamma (unknown origin) using PIP2:3PS as substrate to IC50 for inhibition of recombinant PI3Kdelta (unknown origin) using PIP2:3PS as substrate
recorded endpoint: Ratio IC50

[[record]]
item_smiles = "COc1ncc(-c2ccc3ncnc(N[C@H]4CCN(C(=O)C5CCOCC5)C4)c3c2)cc1C(=O)Oc1ccc(F)cc1"
recorded_endpoint = "Ratio IC50"
recorded_value = 92


1: COc1ncc(-c2ccc3ncnc(N[C@H]4CCN(C(=O)C5CCOCC5)C4)c3c2)cc1C#N
2: COc1ncc(-c2ccc3ncnc(N[C@H]4CCN(C(=O)C5CCOCC5)C4)c3n2)cc1C(=O)Oc1ccc(F)cc1
3: COc1ncc(-c2ccc3ncnc(N[C@H]4CCN(C(=O)C5CCOCC5)C4)c3n2)cc1C(=O)Oc1ccccc1
Lookup: Exam item: list the entries in increasing order of Ratio IC50. Reply: labels, ordered per the request.
Found: 2, 1, 3

====

# target or test system: Phosphatidylinositol 4,5-bisphosphate 3-kinase catalytic subunit alpha isoform (Homo sapiens)
# Sequence (P42336 whole entry, canonical isoform): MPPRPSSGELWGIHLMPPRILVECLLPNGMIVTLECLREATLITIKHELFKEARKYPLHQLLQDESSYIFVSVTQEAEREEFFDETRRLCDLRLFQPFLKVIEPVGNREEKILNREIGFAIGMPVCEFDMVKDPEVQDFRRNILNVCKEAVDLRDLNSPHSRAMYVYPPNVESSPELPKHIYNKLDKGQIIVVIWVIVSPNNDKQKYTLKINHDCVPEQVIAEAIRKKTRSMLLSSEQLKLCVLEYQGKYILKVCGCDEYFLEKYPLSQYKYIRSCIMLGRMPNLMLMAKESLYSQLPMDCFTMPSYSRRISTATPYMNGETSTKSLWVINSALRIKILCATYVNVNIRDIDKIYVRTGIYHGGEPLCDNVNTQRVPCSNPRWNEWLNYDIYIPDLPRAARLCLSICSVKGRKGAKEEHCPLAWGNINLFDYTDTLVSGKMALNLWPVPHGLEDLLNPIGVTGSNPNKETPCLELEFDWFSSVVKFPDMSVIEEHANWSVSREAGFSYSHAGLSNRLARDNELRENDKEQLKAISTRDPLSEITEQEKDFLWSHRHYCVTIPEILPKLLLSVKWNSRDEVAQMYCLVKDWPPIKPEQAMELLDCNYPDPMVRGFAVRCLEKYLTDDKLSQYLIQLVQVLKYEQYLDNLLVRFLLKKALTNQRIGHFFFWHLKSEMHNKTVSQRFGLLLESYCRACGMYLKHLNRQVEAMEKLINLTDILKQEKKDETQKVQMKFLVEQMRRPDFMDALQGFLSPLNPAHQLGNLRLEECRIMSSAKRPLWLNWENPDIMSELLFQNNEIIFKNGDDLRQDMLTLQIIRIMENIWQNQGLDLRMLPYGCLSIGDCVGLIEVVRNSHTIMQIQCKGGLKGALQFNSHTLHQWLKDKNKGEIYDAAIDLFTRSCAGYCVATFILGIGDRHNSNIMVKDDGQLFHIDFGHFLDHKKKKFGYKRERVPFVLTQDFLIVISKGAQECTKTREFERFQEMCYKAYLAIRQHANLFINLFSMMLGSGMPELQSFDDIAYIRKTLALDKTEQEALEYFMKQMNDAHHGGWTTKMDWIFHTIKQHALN
# protocol notes: Inhibition of recombinant PI3Kalpha (unknown origin) using PIP2:3PS as substrate preincubated for 20 mins followed by ATP addition and measured after 1 hrs by ADP-Glo reagent based assay
recorded endpoint: IC50 (nM)

Illustrative cases are given below, each with its answer.
[[record]]
item_smiles = "COc1ncc(-c2ccc3ncnc(N[C@H]4CCN(C(=O)C5CCOCC5)C4)c3n2)cc1C(=O)Oc1ccc(C#N)cc1"
unit_of_measurement = "nM"
recorded_value = 51.4

[[record]]
item_smiles = "COc1ncc(-c2ccc3ncnc(N[C@H]4CCN(C(=O)C5CCOCC5)C4)c3c2)cc1C(=O)Oc1ccc(F)cc1F"
unit_of_measurement = "nM"
recorded_value = 39.3


a: COc1ncc(-c2ccc3ncnc(N[C@H]4CCN(C(=O)C5CCOCC5)C4)c3n2)cc1C(=O)Oc1ccc(F)cc1F
b: COc1ccc(OC(=O)c2cc(-c3ccc4ncnc(N[C@H]5CCN(C(=O)C6CCOCC6)C5)c4c3)cnc2OC)cc1
c: COc1ncc(-c2ccc3ncnc(N[C@H]4CCN(C(=O)C5CCOCC5)C4)c3n2)cc1C(=O)Oc1ccccc1
Lookup: Exam item: list the entries in increasing order of IC50. Reply: labels, ordered per the request.
Found: a, b, c
(a: 29.8 nM, b: 56.5 nM, c: 610 nM)

====

# target or test system: Phosphatidylinositol 4,5-bisphosphate 3-kinase catalytic subunit delta isoform (Homo sapiens)
# protocol notes: Inhibition of recombinant PI3Kdelta (unknown origin) using PIP2:3PS as substrate preincubated for 20 mins followed by ATP addition and measured after 1 hrs by ADP-Glo reagent based assay
recorded endpoint: IC50 (nM)

[[record]]
item_smiles = "COc1ncc(-c2ccc3ncnc(N[C@H]4CCN(C(=O)C5CCOCC5)C4)c3c2)cc1C(=O)Oc1ccc(Cl)cc1Cl"
recorded_value = 1.5


1: COc1ncc(-c2ccc3ncnc(N[C@H]4CCN(C(=O)C5CCOCC5)C4)c3n2)cc1C(=O)Oc1cccnc1
2: COC(=O)c1cc(-c2ccc3ncnc(N[C@H]4CCN(C(=O)C5CCOCC5)C4)c3n2)cnc1OC
3: COc1ncc(-c2ccc3ncnc(N[C@H]4CCN(C(=O)C5CCOCC5)C4)c3c2)cc1C=O
Lookup: Sort by IC50, descending. Reply: labels, ordered per the request.
Found: 3, 2, 1

====

# target or test system: Phosphatidylinositol 4,5-bisphosphate 3-kinase catalytic subunit delta isoform (Homo sapiens, UniProt O00329)
# protocol notes: Inhibition of recombinant PI3Kdelta (unknown origin) using PIP2:3PS as substrate preincubated for 20 mins followed by ATP addition and measured after 1 hrs by ADP-Glo reagent based assay
pIC50: −log10 of the molar value.
recorded endpoint: pIC50

Illustrative cases are given below, each with its answer.
[[record]]
item_smiles = "COc1ncc(-c2ccc3ncnc(N[C@H]4CCN(C(=O)C5CCOCC5)C4)c3n2)cc1C(=O)Oc1ccc(C#N)cc1"
recorded_value = 8.73

[[record]]
item_smiles = "C#Cc1ccc(-c2ccc3ncnc(N[C@H]4CCN(C(=O)C5CCOCC5)C4)c3c2)cc1C=O"
recorded_value = 8.57

[[record]]
item_smiles = "COc1ncc(-c2ccc3ncnc(N[C@H]4CCN(C(=O)C5CCOCC5)C4)c3n2)cc1C(=O)Oc1c(F)cc(F)cc1F"
recorded_value = 8.31

[[record]]
item_smiles = "COc1ncc(-c2ccc3ncnc(N[C@H]4CCN(C(=O)C5CCOCC5)C4)c3c2)cc1C(=O)Oc1ccc(C#N)cc1"
recorded_value = 8.34

[[record]]
item_smiles = "COc1ncc(-c2ccc3ncnc(N[C@H]4CCN(C(=O)C5CCOCC5)C4)c3c2)cc1C(=O)Oc1ccc(F)cc1F"
recorded_value = 8.83

[[record]]
item_smiles = "COc1ncc(-c2ccc3ncnc(N[C@H]4CCN(C(=O)C5CCOCC5)C4)c3c2)cc1C(=O)Oc1ccc(Cl)cc1"
recorded_value = 9.10


I: COc1ncc(-c2ccc3ncnc(N[C@H]4CCN(C(=O)C5CCOCC5)C4)c3n2)cc1C(=O)Oc1ccc(C(F)(F)F)cc1
II: C=CC(=O)Nc1cc(-c2ccc3ncnc(N[C@H]4CCN(C(=O)C5CCOCC5)C4)c3c2)cnc1OC
Lookup: From the recorded data, which exceeds the other in pIC50: I or II ? // output: label of the selected item
Found: I
